Just for reference, the Immune Epitope Database (IEDB) is where these values come from.

Target: HLA-B*58:01
Assay: IEDB peptide-MHC binding, purified MHC/direct/fluorescence; filed as Kd, often an IC50 or EC50 that approximates it; bounds were set here for any values at or beyond the usual limits of such assays
Conditions: source organism: Brucella abortus
measurementType: Kd

Kd of `GRDHVRVTL` on HLA-B*58:01?
≥ 20 µM

---

Target: HLA-B*27:05
Test: IEDB peptide-MHC binding, purified MHC/direct/fluorescence; filed as Kd, often an IC50 or EC50 that approximates it; bounds were set here for any values at or beyond the usual limits of such assays
Conditions: source organism: Bacillus anthracis
measurementType: Kd

Kd of `REFEAQNVP` on HLA-B*27:05?
≥ 20 µM

---

Biological target: HLA-A*02:06
Assay: IEDB peptide-MHC binding, purified MHC/competitive/radioactivity; filed as Kd, often an IC50 or EC50 that approximates it; bounds were set here for any values at or beyond the usual limits of such assays
Settings: source organism: Vaccinia virus WR
// thresholds for Kd classes: label 0 (below 0.5 µM), label 1 (0.5 µM to below 3 µM), label 2 (3 µM or more)

Returns: class label. Input: `SILSLETVKM`
label 1

Entry to check: `IMFMLIFNV`
label 0

Entry to check: `RLYDYFTRVT`
label 1

Entry to check: `SISSVLTIL`
label 0

Entry to check: `DISSFYWSL`
label 2

Entry to check: `VQFSILNNPV`
label 0

Entry to check: `VVKDKIKLPT`
label 2

Entry to check: `ELPYVGDTSM`
label 2

Entry to check: `FVYVSVMNFI`
label 0

---

Target: HLA-B*40:01
Assay: IEDB peptide-MHC binding, purified MHC/direct/fluorescence; filed as Kd, often an IC50 or EC50 that approximates it; bounds were set here for any values at or beyond the usual limits of such assays
Conditions: source organism: Bacillus anthracis
measurementType: pKd
One number for each entry, as −log10 of the molar value.

Find the recorded pKd belonging to `REFEAQNVP` and report it.
6.53

---

Target: HLA-B*53:01
Test: IEDB peptide-MHC binding, purified MHC/competitive/radioactivity; filed as Kd, often an IC50 or EC50 that approximates it; bounds were set here for any values at or beyond the usual limits of such assays
Conditions: source organism: Dengue virus 4 Philippines/H241/1956
// classify: if (Kd < 0.9 µM) yes (1) else no (0)

1) IPERSWNTGF: no (0)
2) FPQSNSPIE: yes (1)
3) NPGFALLAGF: no (0)

With those in mind, consider the next sequence.
Is Kd strictly under 0.9 µM for the entry `NPAQEDDQY` ?
yes (1)

---

Molecular target: HLA-A*02:06
Assay: IEDB peptide-MHC binding, purified MHC/competitive/fluorescence; filed as Kd, often an IC50 or EC50 that approximates it; bounds were set here for any values at or beyond the usual limits of such assays
Conditions: source organism: Vaccinia virus Tian Tan
measurementType: Kd

Find the recorded Kd belonging to `YYKDDISYF` and report it.
≥ 20 µM

---

Molecular target: HLA-B*07:02
Test: IEDB peptide-MHC binding, purified MHC/direct/fluorescence; filed as Kd, often an IC50 or EC50 that approximates it; bounds were set here for any values at or beyond the usual limits of such assays
Settings: source organism: Orthohantavirus andesense
measurementType: Kd

Kd of `AYDHGNVIL` on HLA-B*07:02?
≥ 20 µM

---

Target: HLA-B*58:01
Experiment: IEDB peptide-MHC binding, purified MHC/direct/fluorescence; filed as Kd, often an IC50 or EC50 that approximates it; bounds were set here for any values at or beyond the usual limits of such assays
Details: source organism: Camelpox virus M-96
measurementType: Kd

Kd of `ALYSYASAK` on HLA-B*58:01?
≥ 20 µM

---

Target: HLA-B*44:02
Assay: IEDB peptide-MHC binding, purified MHC/competitive/radioactivity; filed as Kd, often an IC50 or EC50 that approximates it; bounds were set here for any values at or beyond the usual limits of such assays
Conditions: source organism: Lymphocytic choriomeningitis virus (strain Armstrong)
measurementType: pKd
Numbers only, as −log10 of the molar value.

pKd of `TEAILQLGDL` on HLA-B*44:02?
5.61

---

Target: HLA-A*32:01
Assay: IEDB peptide-MHC binding, purified MHC/competitive/radioactivity; filed as Kd, often an IC50 or EC50 that approximates it; bounds were set here for any values at or beyond the usual limits of such assays
Details: source organism: Dengue virus 3 Martinique/1243/1999
measurementType: pKd
One number for each entry, as −log10 of the molar value.

Find the recorded pKd belonging to `KLMSGKDVF` and report it.
6.29

---

Target: HLA-B*39:01
Assay: IEDB peptide-MHC binding, purified MHC/direct/fluorescence; filed as Kd, often an IC50 or EC50 that approximates it; bounds were set here for any values at or beyond the usual limits of such assays
Details: source organism: Mycobacterium tuberculosis str. Haarlem
measurementType: Kd

Kd of `RPRLHSISF` on HLA-B*39:01?
≥ 20 µM

---

Target: HLA-B*51:01
Test: IEDB peptide-MHC binding, purified MHC/competitive/fluorescence; filed as Kd, often an IC50 or EC50 that approximates it; bounds were set here for any values at or beyond the usual limits of such assays
Details: source organism: Reston ebolavirus
pKd: −log10 of the molar value.
measurementType: pKd

Find the recorded pKd belonging to `LPRERFRKT` and report it.
≤ 4.70

---

Biological target: HLA-B*44:02
Test: IEDB peptide-MHC binding, purified MHC/direct/fluorescence; filed as Kd, often an IC50 or EC50 that approximates it; bounds were set here for any values at or beyond the usual limits of such assays
Settings: source organism: Yellow fever virus
measurementType: Kd

Find the recorded Kd belonging to `FHKRDMRLL` and report it.
≥ 20 µM

---

Target: HLA-B*07:02
Assay: IEDB peptide-MHC binding, purified MHC/direct/fluorescence; filed as Kd, often an IC50 or EC50 that approximates it; bounds were set here for any values at or beyond the usual limits of such assays
Conditions: source organism: Mammarenavirus juninense
measurementType: Kd

Find the recorded Kd belonging to `QVKRREGMF` and report it.
≥ 20 µM

---

Target: HLA-B*39:01
Assay: IEDB peptide-MHC binding, purified MHC/direct/fluorescence; filed as Kd, often an IC50 or EC50 that approximates it; bounds were set here for any values at or beyond the usual limits of such assays
Conditions: source organism: Brucella suis 1330
measurementType: pKd
Give bare numbers, as −log10 of the molar value.

Find the recorded pKd belonging to `GRDHVRVTL` and report it.
7.28

---

Assignment: determine reported pKd for the given sequences.
Molecular target: HLA-A*26:01
Test: IEDB peptide-MHC binding, purified MHC/competitive/radioactivity; filed as Kd, often an IC50 or EC50 that approximates it; bounds were set here for any values at or beyond the usual limits of such assays
Conditions: source organism: Dengue virus 4 Philippines/H241/1956
Give bare numbers, as −log10 of the molar value.

Give one value of pKd per listed sequence.
1. DVRNDMISY
2. ELITEQMAPH
3. STPQGLVKRF

6.37
5.22
6.34

---

Target: HLA-B*58:01
Experiment: IEDB peptide-MHC binding, purified MHC/competitive/fluorescence; bounds were set here for any values at or beyond the usual limits of such assays
Settings: source organism: Pan troglodytes
measurementType: IC50

IC50 of `RPPYSSYGY` on HLA-B*58:01?
≥ 20 µM

---

Target: HLA-A*23:01
Assay: IEDB peptide-MHC binding, purified MHC/competitive/fluorescence; filed as Kd, often an IC50 or EC50 that approximates it; bounds were set here for any values at or beyond the usual limits of such assays
Conditions: source organism: Salmonella enterica subsp. enterica serovar Typhi str. CT18
pKd: −log10 of the molar value.
measurementType: pKd

Find the recorded pKd belonging to `KSKPRIHGY` and report it.
≤ 4.70

---

Molecular target: HLA-B*07:02
Assay: IEDB peptide-MHC binding, purified MHC/direct/fluorescence; filed as Kd, often an IC50 or EC50 that approximates it; bounds were set here for any values at or beyond the usual limits of such assays
Details: source organism: Influenza A virus (A/quail/Hong Kong/FY298/00(H9N2))
measurementType: Kd

Find the recorded Kd belonging to `SYLIRALTL` and report it.
≥ 20 µM

---

Target: HLA-B*27:03
Assay: IEDB peptide-MHC binding, purified MHC/competitive/fluorescence; filed as Kd, often an IC50 or EC50 that approximates it; bounds were set here for any values at or beyond the usual limits of such assays
Settings: source organism: Giardia lamblia ATCC 50803
pKd: −log10 of the molar value.
measurementType: pKd

Find the recorded pKd belonging to `DEYGPVFVE` and report it.
≤ 4.70

---

Molecular target: HLA-B*51:01
Assay: IEDB peptide-MHC binding, purified MHC/direct/fluorescence; filed as Kd, often an IC50 or EC50 that approximates it; bounds were set here for any values at or beyond the usual limits of such assays
Details: source organism: Mycobacterium tuberculosis
measurementType: Kd

1) RPRLHSISF: ≥ 20 µM

Kindly consider the entry below.
Kd of `RPAGARAAF` on HLA-B*51:01?
≥ 20 µM
